biological target: Metabotropic glutamate receptor 4 (Rattus norvegicus); assay: Agonist activity at rat mGluR4 expressed in HEK293 cells assessed as induction of inositol phosphate production by HTRF assay; assay type: functional, cell-based
Sequence (P31423 whole entry): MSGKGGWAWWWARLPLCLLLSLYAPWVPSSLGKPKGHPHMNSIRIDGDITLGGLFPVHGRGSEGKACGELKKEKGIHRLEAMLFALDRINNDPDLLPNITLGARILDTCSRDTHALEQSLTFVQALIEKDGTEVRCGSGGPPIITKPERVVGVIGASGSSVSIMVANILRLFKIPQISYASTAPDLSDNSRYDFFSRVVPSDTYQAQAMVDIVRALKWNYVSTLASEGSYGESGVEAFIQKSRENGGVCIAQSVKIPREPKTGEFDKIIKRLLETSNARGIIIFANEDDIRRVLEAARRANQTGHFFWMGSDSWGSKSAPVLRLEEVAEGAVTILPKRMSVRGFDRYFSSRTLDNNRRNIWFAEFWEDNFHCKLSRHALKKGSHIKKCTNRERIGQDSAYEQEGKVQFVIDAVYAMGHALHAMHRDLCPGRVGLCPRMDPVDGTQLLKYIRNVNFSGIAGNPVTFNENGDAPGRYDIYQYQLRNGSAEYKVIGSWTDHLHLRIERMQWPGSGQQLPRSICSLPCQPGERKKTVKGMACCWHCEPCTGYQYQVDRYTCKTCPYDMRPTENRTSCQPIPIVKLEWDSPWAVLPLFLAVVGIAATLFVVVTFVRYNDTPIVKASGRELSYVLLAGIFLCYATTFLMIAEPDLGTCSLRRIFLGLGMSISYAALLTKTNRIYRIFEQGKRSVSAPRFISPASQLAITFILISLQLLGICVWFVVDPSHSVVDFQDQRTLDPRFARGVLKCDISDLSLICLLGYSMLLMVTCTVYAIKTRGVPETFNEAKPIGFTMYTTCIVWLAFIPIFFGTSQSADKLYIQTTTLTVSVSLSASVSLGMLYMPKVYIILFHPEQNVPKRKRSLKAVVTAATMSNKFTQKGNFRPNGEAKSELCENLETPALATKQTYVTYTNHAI
experimental.endpoint: pEC50
Reminder that pEC50 is minus the log10 of a molar concentration.

Answered examples (2):
| molecule | assay.value |
| --- | --- |
| NC1(C(=O)O)CC1(F)CP(=O)(O)O (racemic; form 2) | 7.00 |
| N[C@@]1(C(=O)O)C[C@H]1CP(=O)(O)O | 7.52 |

Metabotropic glutamate receptor 4 (Rattus norvegicus) pEC50 of N[C@@H](CCP(=O)(O)O)C(=O)O is 7.52

----------
target: Metabotropic glutamate receptor 4 (Rattus norvegicus); assay: Agonist activity at rat mGluR4 expressed in HEK293 cells assessed as induction of inositol phosphate production by HTRF assay
// reported pEC50 per item
pEC50 here: minus log base 10 of the concentration, concentration in moles per litre.

| compound | pEC50 |
| --- | --- |
| NC1(C(=O)O)CC1(F)CP(=O)(O)O (single isomer, unassigned; form 2) | 7.00 |
| N[C@@H](CCC(=O)O)C(=O)O | 4.90 |

Could you now look at the following compound, please?
Field pEC50 (entry NC1(C(=O)O)CC1(F)CP(=O)(O)O (racemic; form 1) ) reads 6.52
